Data provenance is paper PMC6823300.

target.under.test: T1, S. cerevisiae Csm1 globular domain (residues 69–190 of 190), untagged (S. cerevisiae, UniProt P25651 69-190)
T1 construct: S. cerevisiae Csm1, globular domain, residues 69-190 of 190; also called Sc Csm1^69–190; untagged Csm1
T1 sequence (looked up): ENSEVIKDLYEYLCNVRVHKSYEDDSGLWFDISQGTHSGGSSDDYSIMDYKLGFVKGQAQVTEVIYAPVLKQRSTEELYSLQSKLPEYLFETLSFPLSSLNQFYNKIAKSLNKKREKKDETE
run.description: ITC; Microcal ITC 200; His6-MBP-fused Dsn1 fragments at 1–1.5 mM injected into a sample cell containing untagged Csm1 at 100–200 μM; protein buffer (20 mM Tris-HCl pH 7.5, 5% glycerol) plus 300 mM NaCl and 1 mM dithiothreitol
settings: both partners purified
quantity.measured: pKd
// returns pKd (minus log10 of molar concentration), number only

Value of measured pKd for the entry DLKFKRHKNKHIQGFPTLGERLDNLQDIKKAKRVENFNSS (domain or fragment, UniProt P40568 71-110, looked up, S. cerevisiae Dsn1, Box 1-2-3 region, residues 71-110 of 576; also called Sc Dsn1^71–110; His6-MBP-fused Dsn1 fragment; source: E. coli Rosetta2 (DE3) pLysS, purified) [His6-MBP-fused S. cerevisiae Dsn1 Box 1-2-3 region (residues 71–110 of 576)] : 4.92
